target: Huntingtin (Homo sapiens) (UniProt P42858); assay: mutant huntingtin-calmodulin interaction inhibitors – biochemical, AlphaScreen, primary screen (AID 1671202); conditions: AlphaScreen His-mHTT/GST-CaM binding, luminescence; at 15 µM, hits give high values;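 further: 0% = both proteins with DMSO and 100% = one protein alone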
Sequence (P42858 whole entry, looked up, stated change not applied): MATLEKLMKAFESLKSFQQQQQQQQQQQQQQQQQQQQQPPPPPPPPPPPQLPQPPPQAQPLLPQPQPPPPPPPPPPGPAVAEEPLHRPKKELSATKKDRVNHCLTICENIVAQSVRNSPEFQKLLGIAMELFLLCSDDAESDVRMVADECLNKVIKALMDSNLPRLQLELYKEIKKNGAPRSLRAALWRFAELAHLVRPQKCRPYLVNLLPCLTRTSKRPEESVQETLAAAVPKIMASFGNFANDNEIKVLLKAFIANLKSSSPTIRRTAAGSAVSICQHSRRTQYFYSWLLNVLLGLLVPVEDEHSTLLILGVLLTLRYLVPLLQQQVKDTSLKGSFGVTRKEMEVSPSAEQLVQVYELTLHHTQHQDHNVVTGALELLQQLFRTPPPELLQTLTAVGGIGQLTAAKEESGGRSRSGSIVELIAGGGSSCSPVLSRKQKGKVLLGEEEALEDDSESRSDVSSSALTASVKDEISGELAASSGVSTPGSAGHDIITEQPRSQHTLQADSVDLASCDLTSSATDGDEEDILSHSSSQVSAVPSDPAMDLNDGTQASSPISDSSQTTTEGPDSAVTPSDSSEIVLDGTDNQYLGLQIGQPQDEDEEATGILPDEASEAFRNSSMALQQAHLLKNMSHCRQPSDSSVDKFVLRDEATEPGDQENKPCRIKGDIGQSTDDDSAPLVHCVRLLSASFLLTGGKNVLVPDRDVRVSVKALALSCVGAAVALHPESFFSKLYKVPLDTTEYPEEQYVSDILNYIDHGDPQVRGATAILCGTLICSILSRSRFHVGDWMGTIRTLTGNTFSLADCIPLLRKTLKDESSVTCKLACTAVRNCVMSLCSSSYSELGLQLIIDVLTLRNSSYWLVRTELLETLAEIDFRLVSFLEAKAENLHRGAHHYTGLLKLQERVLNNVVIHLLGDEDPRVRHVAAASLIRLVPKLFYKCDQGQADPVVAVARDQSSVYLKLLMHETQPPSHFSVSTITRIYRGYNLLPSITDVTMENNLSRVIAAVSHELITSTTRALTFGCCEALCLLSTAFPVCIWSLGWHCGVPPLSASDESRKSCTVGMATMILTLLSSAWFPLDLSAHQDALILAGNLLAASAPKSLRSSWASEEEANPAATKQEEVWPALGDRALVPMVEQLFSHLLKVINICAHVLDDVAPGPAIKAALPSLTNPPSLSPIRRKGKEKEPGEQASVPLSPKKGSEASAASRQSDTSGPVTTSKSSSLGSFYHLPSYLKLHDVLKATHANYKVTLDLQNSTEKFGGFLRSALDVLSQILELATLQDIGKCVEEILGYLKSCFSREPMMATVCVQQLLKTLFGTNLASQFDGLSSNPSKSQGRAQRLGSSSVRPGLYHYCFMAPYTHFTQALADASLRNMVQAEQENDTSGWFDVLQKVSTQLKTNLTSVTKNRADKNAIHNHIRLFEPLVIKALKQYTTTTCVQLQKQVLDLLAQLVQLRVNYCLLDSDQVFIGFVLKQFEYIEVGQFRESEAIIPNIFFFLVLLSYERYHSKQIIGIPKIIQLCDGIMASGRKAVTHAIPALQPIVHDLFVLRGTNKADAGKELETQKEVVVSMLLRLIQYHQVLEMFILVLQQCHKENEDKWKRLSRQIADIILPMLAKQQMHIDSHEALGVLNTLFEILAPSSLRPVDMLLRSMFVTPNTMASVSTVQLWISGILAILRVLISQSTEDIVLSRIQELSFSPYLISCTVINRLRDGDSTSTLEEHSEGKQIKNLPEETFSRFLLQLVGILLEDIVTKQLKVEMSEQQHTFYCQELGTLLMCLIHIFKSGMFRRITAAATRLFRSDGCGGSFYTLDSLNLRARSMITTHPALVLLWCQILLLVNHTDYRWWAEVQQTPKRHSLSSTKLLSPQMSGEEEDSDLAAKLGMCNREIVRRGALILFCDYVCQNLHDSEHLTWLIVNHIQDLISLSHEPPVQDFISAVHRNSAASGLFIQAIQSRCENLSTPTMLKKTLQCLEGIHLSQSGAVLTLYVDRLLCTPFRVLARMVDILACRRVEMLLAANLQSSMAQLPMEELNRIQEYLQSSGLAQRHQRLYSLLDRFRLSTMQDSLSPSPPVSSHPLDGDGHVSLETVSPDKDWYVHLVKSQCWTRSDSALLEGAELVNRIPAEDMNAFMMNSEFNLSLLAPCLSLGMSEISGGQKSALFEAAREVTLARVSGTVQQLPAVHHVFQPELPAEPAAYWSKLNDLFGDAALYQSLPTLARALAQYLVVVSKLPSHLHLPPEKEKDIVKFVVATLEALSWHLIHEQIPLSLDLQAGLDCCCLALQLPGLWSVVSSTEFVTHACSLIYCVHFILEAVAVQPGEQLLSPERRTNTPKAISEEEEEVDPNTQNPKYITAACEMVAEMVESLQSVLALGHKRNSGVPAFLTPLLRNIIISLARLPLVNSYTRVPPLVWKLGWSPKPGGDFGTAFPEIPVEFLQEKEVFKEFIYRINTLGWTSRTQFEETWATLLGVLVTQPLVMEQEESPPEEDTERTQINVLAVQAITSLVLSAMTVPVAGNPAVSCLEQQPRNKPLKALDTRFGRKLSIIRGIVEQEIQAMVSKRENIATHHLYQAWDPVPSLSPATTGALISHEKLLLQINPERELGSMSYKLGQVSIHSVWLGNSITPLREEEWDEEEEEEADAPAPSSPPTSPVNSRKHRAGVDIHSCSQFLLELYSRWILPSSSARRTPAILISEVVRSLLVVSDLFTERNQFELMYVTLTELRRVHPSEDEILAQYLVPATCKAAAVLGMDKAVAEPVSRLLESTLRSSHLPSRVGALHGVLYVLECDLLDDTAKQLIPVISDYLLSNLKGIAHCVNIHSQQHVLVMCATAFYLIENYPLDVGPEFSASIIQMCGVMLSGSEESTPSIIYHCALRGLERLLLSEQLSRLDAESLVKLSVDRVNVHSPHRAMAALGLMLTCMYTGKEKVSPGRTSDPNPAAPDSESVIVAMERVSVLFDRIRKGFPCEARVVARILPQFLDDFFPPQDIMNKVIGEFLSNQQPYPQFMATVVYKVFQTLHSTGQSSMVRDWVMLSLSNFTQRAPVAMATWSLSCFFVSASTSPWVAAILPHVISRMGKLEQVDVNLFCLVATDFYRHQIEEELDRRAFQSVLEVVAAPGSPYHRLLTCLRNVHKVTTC
About 6,900 (3.6%) of roughly 190,000 compounds were called active. Many of the other results were omitted from the sample, so actives are more common in it than they were.
testReadout: inhibition (%)
Numbers only, in %.

See these solved cases before continuing.
Query: What measured inhibition goes with Cc1cc(O)c(CN2CCCCC2)c2c1C(=O)C(=Cc1ccncc1)O2 ?
Result: 10

Query: What measured inhibition goes with Cc1ccc(-c2ccc(CN3C(C)C(=O)N(Cc4cn(CCC5OCCCO5)nn4)CCS3(=O)=O)cc2)cc1 (stereo not drawn) ?
Result: -4

Query: What measured inhibition goes with COC(=O)c1ccc(Cl)cc1NC(=O)N1CCOc2ccccc21 ?
Result: -2.93

Query: What measured inhibition goes with COc1cccc(NC(=O)C2(c3ccccc3)CCOCC2)c1 ?
Result: 1.7

Query: What measured inhibition goes with CC1CC(=O)N(c2ccc(NC3CCCC(C)C3C)c([N+](=O)[O-])c2)C1=O (stereo not drawn) ?
Result: 51

Working through the 3 molecules below one at a time, give inhibition for each.
1. CC(=O)c1cccc(-c2ccc(CN3C(CC(C)C)C(=O)N(Cc4cn(CC5CCCCC5)nn4)CCS3(=O)=O)cc2)c1 (stereo not drawn)
2. COc1ccc(-c2ccc(CN3C(CC(C)C)C(=O)N(Cc4cn(CC5CCCCC5)nn4)CCS3(=O)=O)cc2)cc1 (stereo not drawn)
3. O=C(c1cccs1)N1CCN(C2=NN=C(c3ccccc3)CS2)CC1

Result:
1: 22.9; 2: 3.9; 3: 86.5

Source listed as PubChem BioAssay AID1671202.
